molecular target: endothelin receptor (membrane of smooth muscle tissue of porcine aorta) (Sus scrofa, UniProt Q29010); construct: from tissue; host or cells: porcine aorta smooth muscle, membrane fraction; experiment: Endothelin binding inhibition test (125I-endothelin-1, porcine aorta smooth muscle membrane); conditions: 10 μM test compound (marked *); read-out: 125I-endothelin-1 binding inhibition
Sequence (Q29010 21-427): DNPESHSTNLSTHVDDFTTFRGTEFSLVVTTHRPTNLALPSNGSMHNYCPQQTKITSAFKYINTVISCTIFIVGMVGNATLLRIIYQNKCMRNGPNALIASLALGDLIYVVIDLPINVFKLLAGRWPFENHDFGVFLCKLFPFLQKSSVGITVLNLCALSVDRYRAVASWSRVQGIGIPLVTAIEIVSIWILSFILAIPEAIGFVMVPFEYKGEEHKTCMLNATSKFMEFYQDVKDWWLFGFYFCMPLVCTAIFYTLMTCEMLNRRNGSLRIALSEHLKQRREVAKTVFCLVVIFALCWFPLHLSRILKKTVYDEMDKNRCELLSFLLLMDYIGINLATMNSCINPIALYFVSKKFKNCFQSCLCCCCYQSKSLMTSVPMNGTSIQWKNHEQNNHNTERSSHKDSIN
Square brackets hold non-standard residues; d marks the D form. Peptide text beside a SMILES is read from it. * marks the point of attachment. Boc = CC(C)(C)OC(=O)*; Piv = CC(C)(C)C(=O)*; NHPh = c1ccc(N*)cc1; βAla = NCCC(=O)O
parameter_measured: inhibition at 10 µM (%)
Please reply with the bare figure in % and do not write the unit itself.

[
  {
    "compound": "CC(C)C[C@H](NC(=O)OC(C)(C)C)C(=O)N[C@H](Cc1c[nH]c2ccccc12)C(=O)N[C@@H](CC(=O)O)C(=O)Nc1ccccc1 [Compound 45] (Boc-Leu-[dW]-Asp-NHPh)",
    "inhibition at 10 µM / %": 39
  },
  {
    "compound": "CC(C)C[C@H](NC(=O)OC(C)(C)C)C(=O)N[C@H](Cc1c[nH]c2ccccc12)C(=O)NN(CC(=O)O)CC(=O)O [Compound 147]",
    "inhibition at 10 µM / %": 57
  }
]

Turning now to a further record.
What inhibition at 10 µM value was documented for this compound, CC(C)C[C@H](NC(=O)C(C)(C)C)C(=O)N[C@H](Cc1c[nH]c2ccccc12)C(=O)NCCC(=O)O [Compound 69] (Piv-Leu-[dW]-[βAla]-OH) ? 71

###

target: endothelin receptor (membrane of smooth muscle tissue of porcine aorta) (Sus scrofa); construct: from tissue; host or cells: porcine aorta smooth muscle, membrane fraction; assay: Endothelin binding inhibition test (125I-endothelin-1, porcine aorta smooth muscle membrane); details: 1.1 μM test compound (no mark); read-out: 125I-endothelin-1 binding inhibition
Numbered stars: 1 amine (or outer) side, 2 acyl side, 3 side chain; on linkers, the order of the positions; unused ones are H or OH. Square brackets hold non-standard residues; d marks the D form. Peptide text beside a SMILES is read from it. * marks the point of attachment. d(β3hA) = C[C@@H](N)CC(=O)O; dNle = CCCC[C@@H](N)C(=O)O; Boc = CC(C)(C)OC(=O)*; CO = O=C([*:1])[*:2]; NHtBu = CC(C)(C)N*; βAla = NCCC(=O)O
inhibition at 1.1 µM reference
Please reply with the bare figure in % and do not write the unit itself.

[
  {
    "compound": "CC(C)C[C@H](NC(=O)OC(C)(C)C)C(=O)N[C@H](Cc1c[nH]c2ccccc12)C(=O)NC(CC(=O)O)c1ccccc1 (some centres unmarked) [Compound 14]",
    "test_target": "endothelin receptor (membrane of smooth muscle tissue of porcine aorta) (Sus scrofa)",
    "inhibition at 1.1 µM [%]": 64
  },
  {
    "compound": "COC(=O)[C@@H](Cc1c[nH]c2ccccc12)NC(=O)[C@@H](Cc1c[nH]c2ccccc12)NC(=O)[C@H](CC(C)C)NC(=O)N1CCCCCC1 [Compound 49]",
    "test_target": "endothelin receptor (membrane of smooth muscle tissue of porcine aorta) (Sus scrofa)",
    "inhibition at 1.1 µM [%]": 85
  },
  {
    "compound": "CC(C)C[C@H](NC(=O)NC(C)(C)C)C(=O)N[C@H](Cc1c[nH]c2ccccc12)C(=O)N[C@H](Cc1c[nH]c2ccccc12)C(=O)O [Compound 81] ({NHtBu-CO}-Leu-[dW]-[dW]-OH)",
    "test_target": "endothelin receptor (membrane of smooth muscle tissue of porcine aorta) (Sus scrofa)",
    "inhibition at 1.1 µM [%]": 84
  },
  {
    "compound": "CC(C)C[C@H](NC(=O)N1CCCCCC1)C(=O)N[C@H](Cc1c[nH]c2ccccc12)C(=O)NN1CCC[C@@H]1C(=O)O [Compound 163]",
    "test_target": "endothelin receptor (membrane of smooth muscle tissue of porcine aorta) (Sus scrofa)",
    "inhibition at 1.1 µM [%]": 76
  }
]

What inhibition at 1.1 µM value was documented for this compound, CC(C)C[C@H](NC(=O)OC(C)(C)C)C(=O)N[C@H](Cc1c[nH]c2ccccc12)C(=O)N[C@H](C)CC(=O)O [Compound 1] (Boc-Leu-[dW]-[d(β3hA)]-OH) ? 74

What inhibition at 1.1 µM value was documented for this compound, CC(C)C[C@H](NC(=O)OC(C)(C)C)C(=O)N[C@H](Cc1c[nH]c2ccccc12)C(=O)N[C@H](Cc1ccc(O)cc1)C(=O)O [Compound 138] (Boc-Leu-[dW]-[dY]-OH) ? 72

What inhibition at 1.1 µM value was documented for this compound, CC(C)C[C@H](NC(=O)OC(C)(C)C)C(=O)N[C@H](Cc1c[nH]c2ccccc12)C(=O)N[C@@H](CC(=O)O)C(N)=O [Compound 38] (Boc-Leu-[dW]-Asp-NH2) ? 22

What inhibition at 1.1 µM value was documented for this compound, CC(C)C[C@H](NC(=O)OC(C)(C)C)C(=O)N[C@H](Cc1c[nH]c2ccccc12)C(=O)N[C@H](Cc1c[nH]c2ccccc12)C(=O)O [Compound 2] (Boc-Leu-[dW]-[dW]-OH) ? 83

What inhibition at 1.1 µM value was documented for this compound, CC(C)C[C@H](NC(=O)N1CCCCCC1)C(=O)N[C@H](CC1C(=O)Nc2ccccc21)C(=O)N[C@H](C)CC(=O)O (some centres unmarked) [Compound 139] ? 66

What inhibition at 1.1 µM value was documented for this compound, CC(C)C[C@H](NC(=O)OC(C)(C)C)C(=O)N[C@H](Cc1c[nH]c2ccccc12)C(=O)NCCC(=O)O [Compound 29] (Boc-Leu-[dW]-[βAla]-OH) ? 69

What inhibition at 1.1 µM value was documented for this compound, CCCC[C@@H](NC(=O)[C@@H](Cc1c[nH]c2ccccc12)NC(=O)[C@H](CC(C)C)NC(=O)OC(C)(C)C)C(=O)O [Compound 11] (Boc-Leu-[dW]-[dNle]-OH) ? 41

Where do the numbers come from? From patent US5470833A.
